Sourced from ChEMBL document CHEMBL3244110

# Test system: Mus musculus
# assay.text: Antipsychotic activity in mouse assessed as protection against amphetamine-induced lethality at 5 mg/kg, ip treated 30 mins before amphetamine challenge
# Assay type: functional, organism-based
# Design: dose 5 mg/kg
Calls of active or inactive are those of the source. The calls are words filed in the database; no cut-off is given here.
Outcome codes: active, inactive

> print(dat)
                                query.smiles  category
 1  Cc1cc2c(cc1C)N=C(N1CCN(C)CC1)CC(c1ccc(F)cc1)=N2  inactive
 2     CN1CCN(C2=Nc3cc(Cl)ccc3Nc3ccccc32)CC1    active
 3  COc1ccc(C2=Nc3ccccc3N=C(N3CCN(C)CC3)C2)cc1  inactive
 4      c1ccc(C2=Nc3ccccc3N=C(N3CCCC3)C2)cc1  inactive
 5  CN1CCN(C2=Nc3ccccc3N=C(c3ccc(Cl)cc3)C2)CC1  inactive
 6  Cc1ccc(C2=Nc3ccccc3N=C(N3CCN(C)CC3)C2)cc1  inactive
 7  Clc1ccc2c(c1)N=C(N1CCC(c3ccccc3)CC1)CC(c1ccccc1)=N2  inactive
 8          CN(C)C1=Nc2ccccc2N=C(c2ccccc2)C1  inactive
 9  Cc1cc2c(cc1C)N=C(N1CCN(C)CC1)CC(c1ccccc1)=N2  inactive
10  O=C(CCCN1CCC(O)(c2ccc(Cl)cc2)CC1)c1ccc(F)cc1    active
11  FC(F)(F)c1cccc(C2CCN(C3=Nc4ccccc4N=C(c4ccccc4)C3)CC2)c1  inactive

====

# Tested on: Rattus norvegicus
# assay.text: Antipsychotic activity in 0.2 mA footshock-induced conditioned stimulus rat assessed as decrease in avoidance response at 5 mg/kg, ip after 30 mins
# Assay type: functional, organism-based
# Set-up: dose 5 mg/kg
The source made the active and inactive calls. No cut-off for these calls is given here.
Outcome codes: active, inactive

> print(dat)
                                query.smiles  category
 1  FC(F)(F)c1ccc(C2=CCN(C3=Nc4ccccc4N=C(c4ccccc4)C3)CC2)cc1  inactive
 2  Clc1ccc2c(c1)N=C(N1CCC(c3ccccc3)CC1)CC(c1ccccc1)=N2  inactive
 3     c1ccc(C2=Nc3ccccc3N=C(N3CCCCC3)C2)cc1  inactive
 4  FC(F)(F)c1cccc(C2CCN(C3=Nc4ccccc4N=C(c4ccccc4)C3)CC2)c1  inactive
 5     CN1CCN(C2=Nc3cc(Cl)ccc3Nc3ccccc32)CC1    active
 6        CN(CCO)C1=Nc2ccccc2N=C(c2ccccc2)C1  inactive
 7  Cc1ccc(C2=Nc3ccccc3N=C(N3CCN(C)CC3)C2)cc1  inactive
 8  Cc1ccc(C2=Nc3ccccc3N=C(N3CCC(c4ccccc4)CC3)C2)cc1  inactive
 9  Clc1ccc(C2=CCN(C3=Nc4ccccc4N=C(c4ccccc4)C3)CC2)cc1  inactive
10  Cc1cc2c(cc1C)N=C(N1CCC(c3ccccc3)CC1)CC(c1ccccc1)=N2  inactive
11      c1ccc(C2=Nc3ccccc3N=C(N3CCCC3)C2)cc1  inactive
12  COc1ccc(C2=Nc3ccccc3N=C(N3CCN(C)CC3)C2)cc1  inactive
13  c1ccc(C2=Nc3ccccc3N=C(N3CCC(c4ccccc4)CC3)C2)cc1  inactive
14  Fc1ccc(C2=Nc3ccccc3N=C(N3CCC(c4ccccc4)CC3)C2)cc1    active
15  Cc1ccc(C2=CCN(C3=Nc4ccccc4N=C(c4ccccc4)C3)CC2)cc1    active
16          CN(C)C1=Nc2ccccc2N=C(c2ccccc2)C1  inactive
17    CN1CCN(C2=Nc3ccccc3N=C(c3ccccc3)C2)CC1  inactive
18  CN1CCN(C2=Nc3ccccc3N=C(c3ccc(Cl)cc3)C2)CC1  inactive
19  c1ccc(CC2CCN(C3=Nc4ccccc4N=C(c4ccccc4)C3)CC2)cc1  inactive
20  C1=C(c2ccccc2)CCN(C2=Nc3ccccc3N=C(c3ccccc3)C2)C1  inactive
21  Clc1ccc(C2CCN(C3=Nc4ccccc4N=C(c4ccccc4)C3)CC2)cc1  inactive
22  c1ccc(C2=Nc3ccccc3N=C(N3CCN(c4ccccc4)CC3)C2)cc1  inactive
